Recorded MIC values (Escherichia coli N10) are given below.
Answer in µg/mL, number only, no unit symbol.

INPUT: Fill in: MIC of O=C(Cc1csc(Cl)n1)N[C@@H]1C(=O)N2C(C(=O)O)=C(Cl)CS[C@H]12 is ___
OUTPUT: 32

INPUT: Fill in: MIC of Nc1nc(CC(=O)N[C@@H]2C(=O)N3C(C(=O)O)=C(Cl)CS[C@H]23)cs1 is ___
OUTPUT: 4

INPUT: Fill in: MIC of Cc1nc(CC(=O)N[C@@H]2C(=O)N3C(C(=O)O)=C(Cl)CS[C@H]23)cs1 is ___
OUTPUT: 32
